Test: Solubility of Compound 1 free base in aqueous at various pH
Type: physicochemical
Settings: aqueous solution, aqueous buffer, pH 6.7, time 4 h
EXPERIMENTAL_ENDPOINT: solubility at 4 h (µg/mL)
Please respond with the number in µg/mL and leave the unit unwritten.

-- ask Determine from records and report solubility at 4 h for O=C1CC[C@H](N2C(=O)c3cccc(NCc4ccc(CN5CC(N6CCOCC6)C5)cc4F)c3C2=O)C(=O)N1 [Compound 1 Free Base]
-- reply 2400

* * *

Test: Solubility of Compound 1 free base in aqueous at various pH
Type: physicochemical
Details: aqueous solution, aqueous buffer, pH 7.6, time 4 h
EXPERIMENTAL_ENDPOINT: solubility at 4 h (µg/mL)
Please respond with the number in µg/mL and leave the unit unwritten.

-- ask Determine from records and report solubility at 4 h for O=C1CC[C@H](N2C(=O)c3cccc(NCc4ccc(CN5CC(N6CCOCC6)C5)cc4F)c3C2=O)C(=O)N1 [Compound 1 Free Base]
-- reply 400

The measured values listed here are drawn from patent US20240228475A1.
